Every entry's value here was drawn from patent US20200187499A1.

# Tested on: ABUTH
# Test protocol: Pre-emergence herbicidal action
# Format: in vivo
# Particulars: Table 2, pre-emergence (PE), 320 g/ha, scored after 3 weeks
Provide the reported Herbicidal action against ABUTH of each item.
The response must be a number in % with no trailing unit.

// recorded Herbicidal action against ABUTH for Nc1cc(-c2ccc3ccoc3c2)nc(C(=O)OCc2cccc(F)c2)c1Cl [Example I-02] : 30

Measured Herbicidal action against ABUTH of Nc1cc(-c2ccc3ccsc3c2)nc(C(=O)OCc2cccc(F)c2)c1Cl [Example I-10] : 30

Data point: Nc1cc(-c2ccc3ccsc3c2)nc(C(=O)OCc2ccc(F)cc2F)c1Cl [Example I-12] ; Herbicidal action against ABUTH = 20

Form: compound = Nc1cc(-c2ccc3sccc3c2)nc(C(=O)OCc2ccc(C(F)(F)F)cc2)c1Cl [Example I-16] ; Herbicidal action against ABUTH = 80

Lab note: Nc1cc(-c2ccc3ccsc3c2)nc(C(=O)OCc2ccc(F)cc2)c1Cl [Example I-07] gave Herbicidal action against ABUTH of 80

Note to self: Herbicidal action against ABUTH recorded for Nc1cc(-c2ccc3ccsc3c2)nc(C(=O)OCc2ccccc2F)c1Cl [Example I-01] was 80

For Nc1cc(-c2ccc3occc3c2)nc(C(=O)OCc2ccc(C(F)(F)F)cc2)c1Cl [Example I-36] the compound record lists Herbicidal action against ABUTH as 90

Herbicidal action against ABUTH recorded for this compound, Nc1c(F)c(-c2ccc3ccoc3c2)nc(C(=O)OCc2ccc(F)cc2)c1Cl [Example I-04] , is 90
